Molecular target: biotinylated canine FcRn (canine, UniProt A0A8I3PFR8 25-347, biotinylated (site not stated))
Sequence (A0A8I3PFR8 entry or part of it): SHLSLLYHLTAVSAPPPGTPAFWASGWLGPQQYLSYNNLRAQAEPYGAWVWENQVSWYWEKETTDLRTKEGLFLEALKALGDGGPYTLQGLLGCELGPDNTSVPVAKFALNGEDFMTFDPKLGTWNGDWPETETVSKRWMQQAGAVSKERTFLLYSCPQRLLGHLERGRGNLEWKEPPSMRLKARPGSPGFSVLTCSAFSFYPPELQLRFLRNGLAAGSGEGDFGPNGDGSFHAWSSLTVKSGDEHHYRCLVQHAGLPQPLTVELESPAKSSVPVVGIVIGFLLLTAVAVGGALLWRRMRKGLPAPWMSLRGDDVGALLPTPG
Test: ELISA pH 5.5, fusion protein coated, biotinylated canine FcRn titrated
test readout: EC50 (mg/L)
Answers are plain numbers, in mg/L.

Task: Fill in the blank: the reported EC50 of insulin-Fc fusion protein of SEQ ID NO: 122 (Fc fusion, homodimer) FVNQHLCGSHLVEALELVCGERGFHYGGGGGGSGGGGGIVEQCCTSTCSLDQLENYCGGGGGQGGGGQGGGGQGGGGGGEGPKCPVPEIPGAPSVFIFPPKPKDTLSISRTPEVTCLVVDLGPDDSNVQITWFVDNTEMHTAKTRPREEQFNSTYRVVSVLPILHQDWLKGKEFKCKVNSKSLPSAMERTISKAKGQPHEPQVYVLPPTQEELSENKVSVTCLIKGFHPPDIAVEWEITGQPEPENNYQTTPPQLDSDGTYFLYSRLSVDRSHWQRGNTYTCSVSHEALHSHHTQKSLTQSPG is ____.
Output: 3.11
